Record form. Attribute: glycan array binding signal (z-score). Fill in for each entry.
STUDY_SYSTEM: Neu5Ac(a2-3)Gal(b1-4)GlcNAc(b1-3)Gal(b1-4)GlcNAc(b1-2)Man(a1-3)[Neu5Ac(a2-3)Gal(b1-4)GlcNAc(b1-3)Gal(b1-4)GlcNAc(b1-2)Man(a1-6)]Man(b1-4)GlcNAc(b1-4)GlcNAc
METHOD_NOTES: glycan array binding signal (z-score within array); higher = stronger binding
SETUP_CONDITIONS: glycan notation: IUPAC condensed, linker removed
The sample as a whole holds a higher share of the strongest signals than the screen did.

Prompt line: Using the record for Banana lectin (Musa acuminata) (protein) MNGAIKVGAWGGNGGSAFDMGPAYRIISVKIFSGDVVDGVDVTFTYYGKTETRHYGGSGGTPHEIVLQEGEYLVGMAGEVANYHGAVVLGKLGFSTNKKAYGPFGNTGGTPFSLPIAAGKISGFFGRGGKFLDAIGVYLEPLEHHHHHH , report its glycan array binding signal (z-score).
Response line: -0.167

Prompt line: Using the record for VLRB.aGPA.23-GCN4-biotin (Petromyzon marinus) (protein) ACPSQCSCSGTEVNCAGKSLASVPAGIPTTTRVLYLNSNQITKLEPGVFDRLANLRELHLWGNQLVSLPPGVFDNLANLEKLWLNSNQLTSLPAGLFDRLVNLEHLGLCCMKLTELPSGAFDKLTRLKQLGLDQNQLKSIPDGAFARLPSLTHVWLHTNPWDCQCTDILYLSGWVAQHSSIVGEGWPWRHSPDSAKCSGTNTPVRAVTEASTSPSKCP , report its glycan array binding signal (z-score).
Response line: -0.005

Prompt line: Using the record for GNA (Galanthus nivalis), P30617 (protein) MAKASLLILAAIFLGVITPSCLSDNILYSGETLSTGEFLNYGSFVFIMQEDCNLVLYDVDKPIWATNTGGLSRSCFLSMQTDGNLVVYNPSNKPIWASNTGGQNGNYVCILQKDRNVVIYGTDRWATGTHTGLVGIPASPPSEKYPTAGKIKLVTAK , report its glycan array binding signal (z-score).
Response line: 0.02

Prompt line: Using the record for PpFlo2 (Pichia pastoris) (protein) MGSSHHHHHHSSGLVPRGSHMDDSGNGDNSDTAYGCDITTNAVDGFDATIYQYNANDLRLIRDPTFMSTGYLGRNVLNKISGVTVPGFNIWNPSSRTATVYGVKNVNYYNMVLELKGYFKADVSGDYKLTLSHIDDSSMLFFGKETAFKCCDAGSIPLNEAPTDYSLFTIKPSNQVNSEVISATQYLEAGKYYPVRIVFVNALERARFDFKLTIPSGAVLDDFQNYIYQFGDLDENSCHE , report its glycan array binding signal (z-score).
Response line: -0.239

Prompt line: Using the record for GSL-I-B4 (Griffonia simplicifolia) (protein) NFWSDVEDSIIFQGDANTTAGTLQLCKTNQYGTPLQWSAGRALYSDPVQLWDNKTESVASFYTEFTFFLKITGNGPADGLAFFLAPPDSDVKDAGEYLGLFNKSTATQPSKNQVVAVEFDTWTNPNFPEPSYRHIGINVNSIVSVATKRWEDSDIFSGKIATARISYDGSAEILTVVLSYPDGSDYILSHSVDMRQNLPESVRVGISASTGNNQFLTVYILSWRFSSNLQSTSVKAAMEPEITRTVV , report its glycan array binding signal (z-score).
Response line: 0.149

Prompt line: Using the record for Clec49 (Caenorhabditis elegans) (protein) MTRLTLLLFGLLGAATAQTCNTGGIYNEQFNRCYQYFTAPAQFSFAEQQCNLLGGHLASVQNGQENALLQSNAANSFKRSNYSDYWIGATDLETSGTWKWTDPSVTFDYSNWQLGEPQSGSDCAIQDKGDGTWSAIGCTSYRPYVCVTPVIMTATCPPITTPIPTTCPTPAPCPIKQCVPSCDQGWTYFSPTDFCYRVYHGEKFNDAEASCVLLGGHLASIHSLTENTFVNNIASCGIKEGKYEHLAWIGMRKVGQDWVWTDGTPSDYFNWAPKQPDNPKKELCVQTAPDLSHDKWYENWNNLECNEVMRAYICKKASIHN , report its glycan array binding signal (z-score).
Response line: 2.19
